Assayed System: CeTS (Caenorhabditis elegans)
Sequence (Q9Y052 1-315): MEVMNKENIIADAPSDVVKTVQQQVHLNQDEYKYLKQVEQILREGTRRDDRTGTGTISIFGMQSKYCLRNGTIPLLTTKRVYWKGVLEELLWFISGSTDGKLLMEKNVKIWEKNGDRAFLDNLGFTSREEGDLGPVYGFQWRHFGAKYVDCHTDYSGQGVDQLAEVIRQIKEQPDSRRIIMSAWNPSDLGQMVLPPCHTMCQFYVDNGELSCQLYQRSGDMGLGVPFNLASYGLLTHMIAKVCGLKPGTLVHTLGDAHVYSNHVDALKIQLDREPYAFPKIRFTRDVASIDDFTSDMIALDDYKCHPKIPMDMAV
Assay Text: Inhibition of TS-catalyzed reaction (tritium release from [5-3H]dUMP)
Format: biochemical, C. elegans
Condition Context: 20 µM dUMP and 50 µM meTHF; experiment not repeated; read-out: IC50

{"columns": ["Compound", "IC50 [µM]"],
 "data": [
  ["C=CC(C)(C)c1c2c(c3oc4c(O)c(O)ccc4c(=O)c3c1O)C(C)(C)C(C)O2 (stereo not shown)", 11.4]
]}

* * *

System: U-118 MG human glioblastoma cells
Assay Text: Cytotoxicity, neutral red uptake (NR) assay
Type: cell-based
Condition Context: neutral red assay, U-118 MG, read-out: IC50

{"columns": ["Molecule", "IC50 (µM)"],
 "data": [
  ["C=CC(C)(C)c1c(O)cc2oc3c(O)c(O)cc(CC=C(C)C)c3c(=O)c2c1O", 13.1],
  ["CC1Oc2c(c3c(c4oc5c(O)c(O)ccc5c(=O)c24)C(C)(C)C(C)O3)C1(C)C (stereo not shown)", 18.3],
  ["C=CC(C)(C)c1c2c(c3oc4c(O)c(O)ccc4c(=O)c3c1O)C(C)(C)C(C)O2 (stereo not shown)", 4.75],
  ["COc1ccc2oc3cccc(O)c3c(=O)c2c1", 40]
]}

* * *

Catalogue of remaining activity at 100 µM readings, one per entry.
Assayed System: TsTS (Trichinella spiralis, UniProt Q9NDD3)
Sequence (Q9NDD3 entry or part of it): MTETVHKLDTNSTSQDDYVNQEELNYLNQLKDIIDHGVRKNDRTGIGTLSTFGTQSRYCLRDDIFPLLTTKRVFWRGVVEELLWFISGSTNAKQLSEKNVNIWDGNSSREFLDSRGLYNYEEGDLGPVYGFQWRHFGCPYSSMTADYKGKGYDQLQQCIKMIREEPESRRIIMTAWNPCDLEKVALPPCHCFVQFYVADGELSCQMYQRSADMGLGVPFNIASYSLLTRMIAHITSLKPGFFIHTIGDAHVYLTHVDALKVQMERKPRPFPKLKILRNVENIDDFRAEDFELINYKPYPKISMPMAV
Assay Text: Inhibition of TS-catalyzed reaction (tritium release from [5-3H]dUMP)
Assay type: biochemical, T. spiralis
Condition Context: compound 100 µM; 20 µM dUMP, 50 µM meTHF
Measured Property: remaining activity at 100 µM (%)

{"columns": ["Compound", "Numeric Result"],
 "data": [
  ["COc1c(O)cc2oc3cc(O)c(CC=C(C)C)c(O)c3c(=O)c2c1CC=C(C)C [α-Mangostin (21), α-Mangostin, reference compound]", 85],
  ["C=CC(C)(C)c1c(O)cc2oc3c(O)c(O)cc(CC=C(C)C)c3c(=O)c2c1O", 14],
  ["COc1c(O)cc2oc3ccccc3c(=O)c2c1O", 82],
  ["CC1Oc2c(c3c(c4oc5c(O)c(O)ccc5c(=O)c24)C(C)(C)C(C)O3)C1(C)C (centres unmarked)", 73],
  ["C=CC(C)(C)c1c2c(c3oc4c(O)c(O)ccc4c(=O)c3c1O)C(C)(C)C(C)O2 (centres unmarked)", 40]
]}

* * *

Catalogue of IC50 readings, one per entry.
Assayed System: hTS (Homo sapiens)
Construct: made in house
Assay Text: Inhibition of TS-catalyzed reaction (tritium release from [5-3H]dUMP)
Format: biochemical
Condition Context: 20 µM dUMP and 50 µM meTHF; mean ± S.E.M. (N=3) for alvaxanthone; rheediaxanthone B not repeated; read-out: IC50

{"columns": ["Compound", "IC50 (µM)"],
 "data": [
  ["C=CC(C)(C)c1c2c(c3oc4c(O)c(O)ccc4c(=O)c3c1O)C(C)(C)C(C)O2 (centres unmarked)", 17.9],
  ["C=CC(C)(C)c1c(O)cc2oc3c(O)c(O)cc(CC=C(C)C)c3c(=O)c2c1O", 6.3]
]}

* * *

Assayed System: hTS (Homo sapiens, UniProt P04818)
Construct: made in house
Sequence (P04818 whole entry): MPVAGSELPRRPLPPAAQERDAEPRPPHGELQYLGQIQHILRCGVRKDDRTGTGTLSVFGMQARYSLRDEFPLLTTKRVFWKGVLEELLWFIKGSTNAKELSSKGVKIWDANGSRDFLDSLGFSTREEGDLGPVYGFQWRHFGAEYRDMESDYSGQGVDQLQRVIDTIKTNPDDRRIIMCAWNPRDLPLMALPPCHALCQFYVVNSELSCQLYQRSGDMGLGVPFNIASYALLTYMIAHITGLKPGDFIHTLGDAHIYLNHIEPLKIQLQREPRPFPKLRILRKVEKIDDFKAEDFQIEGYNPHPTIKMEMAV
Assay Text: Inhibition of TS-catalyzed reaction (tritium release from [5-3H]dUMP)
Type: biochemical
Condition Context: compound 100 µM; 20 µM dUMP, 250 µM meTHF; read-out: % Remaining Activity
Catalogue of remaining activity at 100 µM readings, one per entry.

{"columns": ["Compound", "remaining activity at 100 µM (%)"],
 "data": [
  ["CC1(C)CCc2cc3c(cc2O1)OC(c1ccccc1)CC3=O (stereo not drawn)", 37],
  ["O=C(CCc1ccc(O)cc1)c1c(O)cc(O)cc1O", 86],
  ["COc1c(C2(O)COc3cc(O)cc(O)c3C2=O)ccc2c1C=CC(C)(C)O2 (stereo not drawn)", 75],
  ["CC12CCC3C(C1)c1c(cc(O)c(C(=O)c4ccccc4)c1OC3(C)C)O2 (stereo not drawn)", 89],
  ["O=C1c2c(O)cccc2C([C@@H]2O[C@H](CO)[C@@H](O)[C@H](O)[C@H]2O)c2cc(CO)cc(O)c21 (stereo partly drawn)", 94],
  ["COc1c(O)cc2oc(-c3ccccc3)c(O)c(=O)c2c1O", 85],
  ["O=C(OCC1=C[C@@H](O)[C@@H]2C=CO[C@@H](O[C@@H]3O[C@H](CO)[C@@H](O)[C@H](O)[C@H]3O)[C@H]12)c1ccc(O)cc1 [Agnuside (8), Agnuside]", 90],
  ["CC(=O)Oc1c(O)cc(-c2oc3cc(O)cc(O)c3c(=O)c2O)cc1O", 56],
  ["CC(C)=CCc1c(O)ccc2c1OC(c1ccccc1)CC2=O (racemic) [(±)-7-Hydro-xy-8-C-prenyl flavanone]", 74]
]}
